Taken from PubChem BioAssay (NCI).

test system: RXF 393 renal; test: NCI tumour cell line growth inhibition, 48 h; in the data active = GI50 below about 0.43 µM; inactive = the rest
Possible outcomes: active, inactive

* O=Cc1ccc(-c2cc(C=O)c(-c3cccs3)[nH]2)s1 | inactive
* O=C(/C=C/c1ccc(F)cc1)c1ccc(Cl)cc1Cl | inactive
* COc1cc(OC)c(/C=C/S(=O)(=O)Cc2cnc(OC)c(N)c2)c(OC)c1 | active
* CCOC(=O)C(Cc1c[nH]c2ccc(N)cc12)(NC(C)=O)C(=O)OCC | inactive
* CC(C)=CCCC(C)c1ccc(C)c2c1OCN(CC1CCNCC1)C2 (stereo unspecified) | inactive
* CCOC(=O)C(N)C[S][Sn]([CH3])([CH3])[Cl] (stereo unspecified) | inactive
